target.entity: GST-LXRβ ligand-binding domain (Homo sapiens, UniProt P55055, DUP175-175)
Construct: amino acids 156-461; NP009052; made in house; host or cells: E. coli
Sequence (P55055 with tags, fused parts or gaps DUP175-175): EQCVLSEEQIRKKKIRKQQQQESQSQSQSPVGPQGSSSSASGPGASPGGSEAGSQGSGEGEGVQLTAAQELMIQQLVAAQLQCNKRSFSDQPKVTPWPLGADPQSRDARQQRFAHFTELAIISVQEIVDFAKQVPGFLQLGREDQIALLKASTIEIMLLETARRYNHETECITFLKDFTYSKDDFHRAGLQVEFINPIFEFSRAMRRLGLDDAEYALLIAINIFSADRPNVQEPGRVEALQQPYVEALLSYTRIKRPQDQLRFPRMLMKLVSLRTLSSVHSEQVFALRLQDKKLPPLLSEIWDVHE
assay.explanation: TR-FRETβ activity assay (LXRβ-LBD / NCoA3 coactivator peptide, prestimulated with 24(S)-25-epoxycholesterol)
Format: biochemical
Design: key: ag=agonist; ia=inverse agonist
test.parameters: agonist or inverse agonist
property.measured: behavior in FRET assay

sample_smiles=Cc1cc(C)c(S(=O)(=O)N(Cc2ccc(-c3cccc(C(C)(C)C(=O)O)c3)cc2)Cc2ccc(C(F)(F)F)o2)c(C)c1 result=ia
sample_smiles=Cc1ccc2ccccc2c1S(=O)(=O)N(Cc1ccc(-c2cccc(S(=O)(=O)CC(=O)O)c2)cc1)Cc1cccc(C(F)(F)F)c1 result=ia
sample_smiles=Cc1cc(C)c(S(=O)(=O)N(Cc2ccc(-c3cc(F)c(CO)c(S(C)(=O)=O)c3)cc2)Cc2ccc(C(F)(F)F)o2)c(C)c1 result=ia
